Listing of recorded zone of inhibition at 0.25 µg/mL by entry.
- Test system: Listeria monocytogenes
- protocolDescription: Antimicrobial activity against Listeria monocytogenes ATCC 19115 assessed as diameter of growth inhibition zone at 0.25 ug/ml after 24 hr by well-diffusion method
- Type: functional
- measurementParameters: ATCC 19115, 24 h, read-out: DIZ
quantity: zone of inhibition at 0.25 µg/mL (mm)

> print(dat)
                        structurestring                          quantity  unitslabel  measurednumber
1          O=C(O)C/N=C/c1cc(F)cc(Cl)c1O  zone of inhibition at 0.25 µg/mL          mm              10
2              O=C(O)C/N=C/c1cc(F)ccc1O  zone of inhibition at 0.25 µg/mL          mm              10
3  C[C@@H](/N=C/c1cc(F)cc(Cl)c1O)C(=O)O  zone of inhibition at 0.25 µg/mL          mm            12.5
4      C[C@@H](/N=C/c1cc(F)ccc1O)C(=O)O  zone of inhibition at 0.25 µg/mL          mm             6.5

* * *

- Test system: Escherichia coli
- protocolDescription: Antimicrobial activity against Escherichia coli ATCC 1280 assessed as diameter of growth inhibition zone at 0.25 ug/ml after 24 hr by well-diffusion method
- Format: functional
- measurementParameters: ATCC 1280, 24 h, read-out: DIZ
Listing of recorded zone of inhibition at 0.25 µg/mL by entry.
quantity: zone of inhibition at 0.25 µg/mL (mm)

> print(dat)
                        structurestring                          quantity  measurednumber
1      C[C@@H](/N=C/c1cc(F)ccc1O)C(=O)O  zone of inhibition at 0.25 µg/mL              10
2          O=C(O)C/N=C/c1cc(F)cc(Cl)c1O  zone of inhibition at 0.25 µg/mL              16
3  C[C@@H](/N=C/c1cc(F)cc(Cl)c1O)C(=O)O  zone of inhibition at 0.25 µg/mL            15.5
4              O=C(O)C/N=C/c1cc(F)ccc1O  zone of inhibition at 0.25 µg/mL              13

* * *

- Test system: Candida albicans
- protocolDescription: Antimicrobial activity against Candida albicans Y-1200-NIH assessed as diameter of growth inhibition zone at 0.25 ug/ml after 24 hr by well-diffusion method
- Assay type: functional
- measurementParameters: read-out: DIZ
quantity: zone of inhibition at 0.25 µg/mL

> print(dat)
                        structurestring   result
1      C[C@@H](/N=C/c1cc(F)ccc1O)C(=O)O  12.5 mm
2          O=C(O)C/N=C/c1cc(F)cc(Cl)c1O  15.5 mm
3              O=C(O)C/N=C/c1cc(F)ccc1O    10 mm
4  C[C@@H](/N=C/c1cc(F)cc(Cl)c1O)C(=O)O    15 mm
